- ASSAY SYSTEM: T1, LILRB2 (antigen in solution, Octet RED 96) (UniProt Q8N423 22-460, limits assumed)
- T1 construct: also called LILRB2 solution
- EXPERIMENTAL PROTOCOL: BLI (Octet RED 96), antibody on protein A biosensor, LILRB2 in solution
MEASUREMENT TYPE: kon (M⁻¹ s⁻¹)
Numbers only here, please. The scale is M⁻¹ s⁻¹.

Consider the binder B2-17 (antibody, V domains shown, also called B2-17_HC; B2-17_LC) VH: EVQLLDSGPRLLKPSETLSLTCGVSGVSTSSTHWWSWVRQTPGKGLEWIGEILHNGNTNSNPSLKSRVSMSIDKSRNQFSLQLKSMTAADTAVYYCASASPNWGASGAFDAWAQGTMVTVSS VL: QSVLTQPPSASATPGQRVTISCSGSSSNIGSNPVNWYQQVPGMAPELVMYSDNQRPSGVPDRFSGSNSGTSASLAISGLQSEDEADYYCSTWDDSLNGLVFGTGTKVTVL and give its measured kon.
338000
